Attribution: ChEMBL document CHEMBL1201862

Tested on: LOX IMVI
Assay: NCI tumour cell line growth inhibition, 48 h
The source made the active and inactive calls. No stated cut-off is given here; in the data, active = GI50 up to about 1.1 µM and inactive = higher. Where a SMILES comes first, the peptide text is derived from it. [ ]: non-standard residue; d: D form. The star is where a group is joined. NMeF = CN[C@@H](Cc1ccccc1)C(=O)O; NMeV = CN[C@H](C(=O)O)C(C)C; Boc = CC(C)(C)OC(=O)*; OBn = c1ccc(CO*)cc1
We begin with a simple list: items and their reported GI50.

>  <MOLECULE>
COc1ccccc1N1C(=O)CSC1c1cccc(Oc2ccccc2)c1 (centres undefined)

>  <GI50>
17.1 µM (inactive)

$$$$
>  <MOLECULE>
COc1ccc(-c2nc(N(C)C)c3ccccc3n2)cc1

>  <GI50>
11 µM (inactive)

$$$$
>  <MOLECULE>
CNc1nncc2[nH]cnc12

>  <GI50>
> 100 µM (inactive)

$$$$
>  <MOLECULE>
CC(C)[C@@H](C(=O)N1CCC[C@H]1C(=O)OCc1ccccc1)N(C)C(=O)[C@H](C(C)C)N(C)C(=O)[C@H](Cc1ccccc1)N(C)C(=O)[C@H](NC(=O)OC(C)(C)C)C(C)C (Boc-[dV][NMeF][NMeV][NMeV]P-OBn)

>  <GI50>
> 50 µM (inactive)

$$$$

----------
We begin with a simple list: items and their reported GI50.
System: SNB-78
Experiment: NCI tumour cell line growth inhibition, 48 h
Active and inactive are the calls of the source. Rule as the data show it: active = GI50 up to about 1.1 µM and inactive = higher.

>  <MOLECULE>
C/C(=N/NS(=O)(=O)c1ccc(C)cc1)c1cccc[n+]1[O-]

>  <GI50>
> 100 µM (inactive)

$$$$
>  <MOLECULE>
Nc1nc(=O)[nH]c2c1cnn2Cc1ccccc1

>  <GI50>
1.46 µM (inactive)

$$$$
>  <MOLECULE>
COC(=O)C(=O)C(C(=O)C(=O)Nc1ccc(Cl)cc1C)c1nc2ccc(C(=O)c3ccccc3)cc2nc1O (stereo not given)

>  <GI50>
> 100 µM (inactive)

$$$$
>  <MOLECULE>
Cc1cc(N(CCC#N)CCC#N)ccc1/C=C(\NC(=O)/C=C/c1ccccc1)C(=O)Nc1ccc(Cl)cc1

>  <GI50>
> 100 µM (inactive)

$$$$
>  <MOLECULE>
O=C1/C(=C/c2ccc3c(c2)OCCO3)CCC/C1=C\c1ccc2c(c1)OCCO2

>  <GI50>
26.8 µM (inactive)

$$$$

----------
We begin with a simple list: items and their reported GI50.
Tested on: SR
Assay: NCI tumour cell line growth inhibition, 48 h
Active and inactive are the calls of the source. No stated cut-off is given here; in the data, active = GI50 up to about 1.1 µM and inactive = higher.

>  <COMPOUND>
O=P1(c2ccccc2)CCCCC1

>  <TARGET OF ASSAY>
SR

>  <GI50>
> 100 µM (inactive)

$$$$
>  <COMPOUND>
COc1cc(/C=C/C(=O)OCCc2ccccc2)ccc1O

>  <TARGET OF ASSAY>
SR

>  <GI50>
24.7 µM (inactive)

$$$$
>  <COMPOUND>
CC(=O)Nc1cc2ccc(=O)oc2cc1Cl

>  <TARGET OF ASSAY>
SR

>  <GI50>
> 100 µM (inactive)

$$$$
>  <COMPOUND>
N#Cc1ccc(C(O)C(F)(F)c2nc3ccccc3o2)cc1 (stereo unspecified)

>  <TARGET OF ASSAY>
SR

>  <GI50>
86.9 µM (inactive)

$$$$
>  <COMPOUND>
CN(C(=O)Cc1cc(Cl)c(Cl)cc1N=C=S)[C@H]1CCCC[C@@H]1N1CCCC1

>  <TARGET OF ASSAY>
SR

>  <GI50>
1.64 µM (inactive)

$$$$
>  <COMPOUND>
Cn1c2c(c3ccccc31)C1CCCCCCC1C1C(=O)OC(=O)C21 (stereo unspecified)

>  <TARGET OF ASSAY>
SR

>  <GI50>
29 µM (inactive)

$$$$
>  <COMPOUND>
NC(=S)N/N=C\c1nccc2ccccc12

>  <TARGET OF ASSAY>
SR

>  <GI50>
0.126 µM (active)

$$$$
>  <COMPOUND>
CC(NNC(=O)c1cc[n+]([BH2-]C#N)cc1)C(F)(F)F (stereo unspecified)

>  <TARGET OF ASSAY>
SR

>  <GI50>
> 100 µM (inactive)

$$$$
>  <COMPOUND>
O=C1NC(=S)N/C1=C\c1cc2c(=O)c3ccccc3sc2s1

>  <TARGET OF ASSAY>
SR

>  <GI50>
22.8 µM (inactive)

$$$$
>  <COMPOUND>
COC(=O)C1=C(OC(=O)/C(=C/c2ccc(Cl)cc2)c2ccccc2)C(C(=O)OC)[C@@]2(O)[C@@H](C(=O)OC)[C@H](C)C[C@@H]1[C@@H]2C(=O)OC (stereo partly specified)

>  <TARGET OF ASSAY>
SR

>  <GI50>
> 100 µM (inactive)

$$$$
>  <COMPOUND>
COC(=O)C(N)CCCC(N)C(=O)NC(C)C(=O)NC(CCC(=O)NCCNCCNc1c2ccccc2nc2cccc([N+](=O)[O-])c12)C(N)=O (stereo unspecified)

>  <TARGET OF ASSAY>
SR

>  <GI50>
19.7 µM (inactive)

$$$$
>  <COMPOUND>
Oc1cccc(-c2cc(=S)ss2)c1

>  <TARGET OF ASSAY>
SR

>  <GI50>
2.76 µM (inactive)

$$$$
>  <COMPOUND>
N#CCCN(C1=NN(C(=O)CC(=O)Nc2ccc(Cl)cc2)C(c2ccccc2)C1)c1ccc(Cl)cc1 (stereo unspecified)

>  <TARGET OF ASSAY>
SR

>  <GI50>
> 100 µM (inactive)

$$$$
>  <COMPOUND>
COC1=CC(=O)c2c(ccc3ncnc(N)c23)C1=O

>  <TARGET OF ASSAY>
SR

>  <GI50>
0.164 µM (active)

$$$$
>  <COMPOUND>
O=C(N/C(=C\c1ccccc1Cl)c1nc2ccccc2[nH]1)c1ccccc1

>  <TARGET OF ASSAY>
SR

>  <GI50>
23.3 µM (inactive)

$$$$
>  <COMPOUND>
CCCCNC(=O)c1cc2c(cc1Cl)Sc1nccn1S2(=O)=O

>  <TARGET OF ASSAY>
SR

>  <GI50>
57.3 µM (inactive)

$$$$
